- experiment-notes: pKa of cations in liposomal nanoparticles, TNS fluorescence analysis
- Assay type: physicochemical
- condition-notes: pH at half-maximal TNS fluorescence
endpoint: pKa
Please give only the number in your answer, with no unit.

In plain terms, CCCCCCCCCCCOC(=O)CCCCCN(CCO)CCCCCOCC(=O)OC(CCCCCCCC)CCCCCCCC [Compound 1] has a documented pKa of 6.65

In plain terms, CCCCCCCCCCCOC(=O)CCCCCN(CCO)CCCCCOC(C)(C)C(=O)OC(CCCCCCCC)CCCCCCCC [Compound 4] has a documented pKa of 6.3

In plain terms, CCCCCCCCCCCOC(=O)CCCCCN(CCO)CCCCCO[C@@H](C)C(=O)OC(CCCCCCCC)CCCCCCCC [Compound 3] has a documented pKa of 6.49

In plain terms, CCCCCCCCCCCOC(=O)CCCCCN(CCO)CCOCCCCC(=O)OC(CCCCCCCC)CCCCCCCC [Compound 2] has a documented pKa of 6.38

* * *

Can you tell me Encapsulation efficiency (%) for the items I'm about to list?
- experiment-notes: Liposome encapsulation efficiency, Quant-iT RiboGreen RNA assay
- Type: physicochemical
- condition-notes: mRNA-encapsulating liposomal nanoparticles
Reply with just the number (in %).

In plain terms, CCCCCCCCCCCOC(=O)CCCCCN(CCO)CCCCCOC(C)(C)C(=O)OC(CCCCCCCC)CCCCCCCC [Compound 4] has a documented Encapsulation efficiency (%) of 97.3

In plain terms, CCCCCCCCCCCOC(=O)CCCCCN(CCO)CCCCCOCC(=O)OC(CCCCCCCC)CCCCCCCC [Compound 1] has a documented Encapsulation efficiency (%) of 94.6

In plain terms, CCCCCCCCCCCOC(=O)CCCCCN(CCO)CCCCCO[C@@H](C)C(=O)OC(CCCCCCCC)CCCCCCCC [Compound 3] has a documented Encapsulation efficiency (%) of 96.7

In plain terms, CCCCCCCCCCCOC(=O)CCCCCN(CCO)CCOCCCCC(=O)OC(CCCCCCCC)CCCCCCCC [Compound 2] has a documented Encapsulation efficiency (%) of 97.3

* * *

- experiment-notes: in vivo
- condition-notes: female, BALB/c, mouse, 0.5 mg/kg, Half-life (hours) Liver
endpoint: half-life (h)
Reply with just the number (in h).

In plain terms, CCCCCCCCCCCOC(=O)CCCCCN(CCO)CCCCCOCC(=O)OC(CCCCCCCC)CCCCCCCC [Compound 1] has a documented half-life of 34.2

* * *

- experiment-notes: Size and polydispersity index of liposomal nanoparticles by dynamic light scattering
- Format: physicochemical
- condition-notes: mRNA-encapsulating liposomal nanoparticles; lipid:DSPC:cholesterol:DMG-PEG 50:10:38.5:1.5
endpoint: Size (nm)
Reply with just the number (in nm).

In plain terms, "CCCCCCCCCCCOC(=O)CCCCCN(CCO)CCCCCOC(C)(C)C(=O)OC(CCCCCCCC)CCCCCCCC" has a documented Size (nm) of 74.8

In plain terms, "CCCCCCCCCCCOC(=O)CCCCCN(CCO)CCCCCO[C@@H](C)C(=O)OC(CCCCCCCC)CCCCCCCC" has a documented Size (nm) of 79.6

In plain terms, "CCCCCCCCCCCOC(=O)CCCCCN(CCO)CCCCCOCC(=O)OC(CCCCCCCC)CCCCCCCC" has a documented Size (nm) of 87.8

In plain terms, "CCCCCCCCCCCOC(=O)CCCCCN(CCO)CCOCCCCC(=O)OC(CCCCCCCC)CCCCCCCC" has a documented Size (nm) of 116.5
